- method_summary: Plasma pharmacokinetics of BN201 in rats (LC-MS/MS, WinNonlin)
- Format: in vivo, Sprague Dawley Rat
- experimental_context: male, Sprague Dawley; rat plasma, IP 25 mg/Kg once daily, 7 doses, Mean ± SEM
- Procedure: […] • Group 1 and 2 served as sham and pathological control respectively and only saline was administered • Test compound was delivered once at various doses (as mentioned above) through IP or IV infusion in the respective groups. […] Observation and Readouts 9.1 Body weight […]
measured_property: Tmax (min)
The figure you give is taken to be in min; do not add the unit.

*Q* Query: Tmax; subject: CC(C)CN(CC(=O)N(CCCN1CCCC1=O)CC(N)=O)C(=O)CNCCc1ccccc1F [BN201]
*A* 18

----------
- method_summary: Plasma pharmacokinetics of BN201 in rats (LC-MS/MS, WinNonlin)
- Format: in vivo, Sprague Dawley Rat
- experimental_context: male, Sprague Dawley; rat plasma, IP 70 mg/Kg once daily, 7 doses, Mean ± SEM
- Experimental: […] • Group 1 and 2 served as sham and pathological control respectively and only saline was administered • Test compound was delivered once at various doses (as mentioned above) through IP or IV infusion in the respective groups. […] Observation and Readouts 9.1 Body weight […]
measured_property: Cmax (ng/mL)
Write the answer as a number in ng/mL, unit excluded.

*Q* Which Cmax is listed for "CC(C)CN(CC(=O)N(CCCN1CCCC1=O)CC(N)=O)C(=O)CNCCc1ccccc1F" ?
*A* 34700
